target: Metabotropic glutamate receptor 3 (Homo sapiens); test: Ability to block 1S,3R-ACPD-induced inhibition of forskolin stimulated cyclic-AMP in non-neuronal cell line expressing human Metabotropic glutamate receptor 3; assay type: functional
Sequence (Q14832 whole entry): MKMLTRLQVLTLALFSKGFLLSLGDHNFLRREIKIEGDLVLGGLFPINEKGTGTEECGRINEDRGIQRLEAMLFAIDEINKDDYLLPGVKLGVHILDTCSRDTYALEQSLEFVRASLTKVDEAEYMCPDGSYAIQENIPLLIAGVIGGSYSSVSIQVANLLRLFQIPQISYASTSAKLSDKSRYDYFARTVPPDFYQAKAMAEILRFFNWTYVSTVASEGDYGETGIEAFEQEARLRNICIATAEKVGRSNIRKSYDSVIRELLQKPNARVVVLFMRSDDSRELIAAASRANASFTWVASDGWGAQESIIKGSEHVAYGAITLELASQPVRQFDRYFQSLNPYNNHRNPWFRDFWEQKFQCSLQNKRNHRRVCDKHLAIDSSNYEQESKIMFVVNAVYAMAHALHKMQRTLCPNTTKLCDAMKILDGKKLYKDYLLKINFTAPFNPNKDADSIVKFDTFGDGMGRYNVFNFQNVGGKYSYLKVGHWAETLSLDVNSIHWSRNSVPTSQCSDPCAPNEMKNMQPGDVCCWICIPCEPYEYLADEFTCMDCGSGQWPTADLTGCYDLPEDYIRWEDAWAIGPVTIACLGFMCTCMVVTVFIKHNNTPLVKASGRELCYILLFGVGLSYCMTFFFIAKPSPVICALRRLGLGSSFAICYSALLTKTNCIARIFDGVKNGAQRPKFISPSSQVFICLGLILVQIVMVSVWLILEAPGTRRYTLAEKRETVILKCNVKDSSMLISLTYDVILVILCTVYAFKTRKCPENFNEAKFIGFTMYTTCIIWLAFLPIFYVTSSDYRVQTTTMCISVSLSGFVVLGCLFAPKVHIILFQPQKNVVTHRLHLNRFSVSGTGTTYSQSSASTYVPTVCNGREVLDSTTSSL
METRIC: IC50 (nM)

1 = CC(C)C[C@](N)(C(=O)O)C1C[C@@H]1C(=O)O (stereo partly specified)
2 = NC(CCc1ccsc1)(C(=O)O)[C@H]1C[C@@H]1C(=O)O (stereo partly specified)
Request: Pick one: 1 or 2 . Which one has the lower reported IC50? Kindly give the label for the entry you pick.
Result: 2
(2: 570 nM, 1: 1800 nM)

A = NC(CCc1cccc2ccccc12)(C(=O)O)[C@H]1C[C@@H]1C(=O)O (stereo partly specified)
B = CCC(N)(C(=O)O)[C@H]1C[C@@H]1C(=O)O (stereo partly specified)
C = Cn1cc(CCC(N)(C(=O)O)[C@H]2C[C@@H]2C(=O)O)c2ccccc21 (stereo partly specified)
Request: Order the records so the highest IC50 appears first and the lowest last. List each label, following the requested order.
Result: B, C, A

A = NC(CCCc1ccccc1)(C(=O)O)[C@H]1C[C@@H]1C(=O)O (stereo partly specified)
B = NC(CCCCc1ccccc1)(C(=O)O)[C@H]1C[C@@H]1C(=O)O (stereo partly specified)
Request: Pick one: A or B . Which one has the lower reported IC50? Kindly give the label for the entry you pick.
Result: A
